# study_system: Peroxisome proliferator-activated receptor delta (Homo sapiens, UniProt Q03181)
# Sequence (Q03181 whole entry): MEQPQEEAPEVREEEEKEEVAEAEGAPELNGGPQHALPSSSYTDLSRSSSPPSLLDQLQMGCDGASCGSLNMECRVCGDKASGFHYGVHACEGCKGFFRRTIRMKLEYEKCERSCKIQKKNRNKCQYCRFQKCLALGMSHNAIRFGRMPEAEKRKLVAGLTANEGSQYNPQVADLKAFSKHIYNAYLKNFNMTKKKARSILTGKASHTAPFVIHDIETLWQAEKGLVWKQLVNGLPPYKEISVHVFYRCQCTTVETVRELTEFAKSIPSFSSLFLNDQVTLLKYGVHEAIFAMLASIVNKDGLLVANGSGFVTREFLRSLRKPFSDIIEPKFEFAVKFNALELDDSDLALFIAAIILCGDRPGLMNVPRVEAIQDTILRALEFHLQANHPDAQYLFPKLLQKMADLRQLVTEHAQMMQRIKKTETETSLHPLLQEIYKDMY
# procedure_summary: Activity at human PPAR delta in Huh7 cells by transactivation assay

{"columns": ["given_smiles", "unit_abbrev", "cmp", "EC50"],
 "data": [
  ["CCCc1c(OCCCn2ccc3cc(OC(C)(C)C(=O)O)ccc32)ccc2cc(C(=O)c3ccccc3)ccc12", "µM", ">", 10],
  ["CCCc1c(OCCCn2ccc3ccc(OCC(=O)O)cc32)ccc2cc(C(=O)c3ccccc3)ccc12", "µM", "=", 6.98],
  ["CCCc1c(OCCCn2ccc3c(OC(C)(C)C(=O)O)cccc32)ccc2cc(C(=O)c3ccccc3)ccc12", "µM", "=", 4.3],
  ["CCCc1c(OCCCn2ccc3cc(OCC(=O)O)ccc32)ccc2cc(C(=O)c3ccccc3)ccc12", "µM", ">", 10],
  ["CCCc1c(OCCCn2ccc3c(OCC(=O)O)cccc32)ccc2cc(C(=O)c3ccccc3)ccc12", "µM", ">", 10],
  ["CCCc1c(OCCCn2ccc3ccc(OC(C)(C)C(=O)O)cc32)ccc2cc(C(=O)c3ccccc3)ccc12", "µM", "=", 4.63]
]}
